From: PubChem BioAssay AID1159580

Assign normalized growth to each entry below.
experiment: chemical genetic growth profiling, strain panel (AID 1159580);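 also: tested at 20 µM; growth read once vehicle control cultures reached saturation at 30 °C; 1 = growth at the plate median or of vehicle wells; lower values mean less growth of the strain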; conditions: S. cerevisiae deletion strains, growth OD, locus YJR066W, strain TOR1, active compounds read low
Out of some 5,500 compounds screened, about 2,000 (36%) were called active. Not shown: some 18% with an inconclusive outcome. Some of the results follow.
One number for each entry.

MOLECULE	normalized growth
O=C(Nc1ccc(F)cc1F)c1cc(Cl)c(-n2cccc2)c(Cl)c1	0.993
CC(C)=CC1C(C(=O)O)C1(C)C (stereo not given)	0.905
O=C(OCc1ccccc1)c1ccccc1	0.906
CCOC(=O)c1ccc(Cl)c(N=Cc2cc(Cl)cc(Cl)c2O)c1	0.37
CC(C)(C)NCC(O)c1ccc(O)c(CO)c1 (stereo not given)	0.979
O=P1(NCCCl)OCCCN1CCCl (stereo not given)	0.921
CN1CCN(C(=O)OC2c3nccnc3C(=O)N2c2ccc(Cl)cn2)CC1 (stereo not given)	0.935
Cc1c(C)c2c(c(C)c1O)CCC(C)(CCCC(C)CCCC(C)CCCC(C)C)O2 (stereo not given)	0.972
O=C1c2cccc3c(Sc4ccccc4)ccc(c23)C(=O)N1NCCO	0.805
Cc1ccc2nc(-c3ccc4c(c3)OCCO4)cn2c1	1

Batch of 7 molecules: report normalized growth for each.
1. O=C(CC(=O)c1ccccc1)c1ccccc1
2. NC(Cn1ccc(=O)c(O)c1)C(=O)O (stereo not given)
3. Oc1cccc(O)c1
4. CN(C)CCC(c1ccc(Cl)cc1)c1ccccn1 (stereo not given)
5. CCOC(=O)NNc1nncc2ccccc12
6. CC(=O)Oc1cccc(O)c1
7. Nc1ccc(C(=O)O)cc1

Response:
0.565
0.98
0.971
0.927
0.978
0.96
0.968

----------
Assign normalized growth to each entry below.
experiment: chemical genetic growth profiling, strain panel (AID 1159580); conditions: S. cerevisiae deletion strains, growth OD, locus YGL248W, strain PDE1, active compounds read low
The campaign covered roughly 5,500 compounds. About 2,000 (36%) were called active. Inconclusive results (about 18%) are left out. Some of the results follow.
Numbers only.

Below: 4 compounds and their reported normalized growth.
COMPOUND	normalized growth
CN(C)CCCN1c2ccccc2Sc2ccccc21	1
CN[C@@H]1[C@H](O)[C@H](NC)[C@H]2O[C@@]3(O)C(=O)C[C@@H](C)O[C@H]3O[C@@H]2[C@H]1O	1.02
OC[C@H]1O[C@@H](O[C@H]2[C@H](O)[C@@H](O)[C@@H](O)O[C@@H]2CO)[C@H](O)[C@@H](O)[C@@H]1O	1.01
CC(C)=CC1C(C(=O)O)C1(C)C (stereo not given)	1.04

Request: Can you share its normalized growth? I mean this compound: COc1ccc(C2Sc3ccccc3N(CCN(C)C)C(=O)C2OC(C)=O)cc1 (stereo not given)
Response: 1.01

----------
experiment: chemical genetic growth profiling, strain panel (AID 1159580); conditions: S. cerevisiae deletion strains, growth OD, locus YDR159W, strain sac3, active compounds read low
The campaign covered roughly 5,500 compounds. About 2,000 (36%) were called active. Roughly 18% stayed inconclusive and do not appear here. This is one part of the list.
Assign normalized growth to each entry below.
One number for each entry.

MOLECULE	normalized growth
NCC(N)C(=O)c1ccccc1 (stereo not drawn)	1.05
NC(=O)NC(=O)Cc1ccccc1	0.997
CCC(C)C(=O)OC1[C@@H]2CC3=C4CC(=O)O[C@@H](c5ccoc5)[C@]4(C)CCC3[C@@](C)(C2=O)[C@@H](CC(=O)OC)C1(C)C (stereo partly drawn)	0.998
CN(C)CCCN1c2ccccc2CCc2ccc(Cl)cc21	1.04
CC(C)CCCC(C)[C@H]1CCC2C3C(=O)C=C4C[C@@H](O)CC[C@]4(C)C3CC[C@@]21C (stereo partly drawn)	1.06

Batch of 4 molecules: report normalized growth for each.
1. CO[C@H]1CC(O[C@@H]2/C(C)=C/C[C@@H]3C[C@@H](C[C@]4(CC[C@H](C)[C@@H](C5CCCCC5)O4)O3)OC(=O)[C@@H]3C=C(C)/C(=N\O)[C@H]4OC/C(=C\C=C\[C@@H]2C)[C@]43O)O[C@@H](C)C1O (stereo partly drawn)
2. NCC(=O)c1ccccc1
3. CC(=O)c1cc(CC=C(C)C)c(O)c(CC=C(C)C)c1
4. CCOC(=O)[C@H](CCc1ccccc1)N[C@@H](C)C(=O)N1CCC[C@H]1C(=O)O

Response:
1. 0.756
2. 0.993
3. 1.02
4. 0.937

----------
experiment: chemical genetic growth profiling, strain panel (AID 1159580);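 also: tested at 20 µM; growth read once vehicle control cultures reached saturation at 30 °C; 1 = growth at the plate median or of vehicle wells; lower values mean less growth of the strain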; conditions: S. cerevisiae deletion strains, growth OD, locus YGL173C, strain kem1, active compounds read low
Among all 5,500 compounds or so, about 2,000 (36%) were called active. About 18% were inconclusive and are not listed. The list shows a part of the results.
EXPERIMENTAL READOUT: normalized growth
Answers are plain numbers.

COMPOUND	normalized growth
COc1ccc([C@@H]2CC(=O)c3c(O)cc(O[C@@H]4O[C@H](CO[C@H]5O[C@@H](C)[C@H](O)[C@@H](O)[C@H]5O)[C@@H](O)[C@H](O)[C@H]4O)cc3O2)cc1O	0.968
COC(=O)c1c(C)c2c(c(C)c1O)OC(=O)c1c(C)c(Cl)c(O)c(Cl)c1O2	0.966
CC(C)=CCCC(C)[C@@H]1CC[C@]2(C)C3=C(CC[C@@]12C)C1(C)CC[C@H](O)C(C)(C)C1CC3 (some centres undefined)	1.02
CC(=O)O[C@H]1CCC2(C)C3=C(CCC2C1(C)C)[C@]1(C)CCC(C(C)CCC=C(C)C)[C@@]1(C)CC3 (some centres undefined)	0.971

Batch of 7 compounds: report normalized growth for each.
1. OC[C@H]1O[C@@](CO)(O[C@@H]2O[C@H](CO)[C@@H](O)[C@H](O)[C@H]2O)[C@@H](O[C@@H]2O[C@H](CO)[C@@H](O)[C@H](O)[C@H]2O)[C@@H]1O
2. CN(C)CCCN1c2ccccc2Sc2ccc(Cl)cc21
3. Nc1ccc(C(=O)O)cc1
4. N=C(N)N
5. CCOC(=O)NNc1nncc2ccccc12
6. OC[C@H]1O[C@@H](O[C@H]2[C@H](O)[C@@H](O)[C@@H](O)O[C@@H]2CO)[C@H](O)[C@@H](O)[C@@H]1O
7. CC(=O)O[C@H]1CCC2(C)C3=C(CCC2C1(C)C)[C@@]1(C)CC[C@@H](C(C)CCC=C(C)C)[C@]1(C)CC3 (some centres undefined)

Response:
[1.03, 0.501, 1.03, 0.987, 0.972, 1, 1.02]

----------
Assign normalized growth to each entry below.
experiment: chemical genetic growth profiling, strain panel (AID 1159580);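 also: tested at 20 µM; growth read once vehicle control cultures reached saturation at 30 °C; 1 = growth at the plate median or of vehicle wells; lower values mean less growth of the strain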; details: S. cerevisiae deletion strains, growth OD, locus YPR141C, strain kar3, active compounds read low
Hit rate of the full screen: of about 5,500 compounds, about 2,000 (36%) were called active. About 18% were inconclusive and are not listed. The list shows a part of the results.
One number for each entry.

COMPOUND	normalized growth
O=C(OCc1ccccc1)c1ccccc1	0.949
CC(=O)O[C@H]1CC[C@@]2(C)C(=CC(=O)C3C4CCC(C(C)CCCC(C)C)[C@@]4(C)CCC32)C1 (stereo partly specified)	0.993
NCC(N)C(=O)c1ccccc1 (stereo unspecified)	1.01
CCOC(=O)[C@H](CCc1ccccc1)N[C@@H](C)C(=O)N1CCC[C@H]1C(=O)O	1.01
CCC(C)C(=O)OC1[C@@H]2CC3=C4CC(=O)O[C@@H](c5ccoc5)[C@]4(C)CCC3[C@@](C)(C2=O)[C@@H](CC(=O)OC)C1(C)C (stereo partly specified)	1.01

Consider the record given below.
Request: Can you share its normalized growth? I mean this compound: "NCC(=O)c1ccccc1"
Response: 0.993

----------
assay: chemical genetic growth profiling, strain panel (AID 1159580);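 also: tested at 20 µM; growth read once vehicle control cultures reached saturation at 30 °C; 1 = growth at the plate median or of vehicle wells; lower values mean less growth of the strain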; details: S. cerevisiae deletion strains, growth OD, locus YJL168C, strain set2
Out of some 5,500 compounds screened, about 2,000 (36%) were called active. Another 18% or so got no clear call; they are omitted. Rule as the data show it: active = normalized growth mostly below about 0.91 (no sharp cut-off); inconclusive = no clear call, values can overlap the other calls; inactive = mostly above about 0.92. This is one part of the list.
Parameter call: string, one of active, inactive

Reference set, count: 4
COMPOUND	ASSIGNED CATEGORY
CC(C)=CCCC(C)C1CC[C@@]2(C)C3=C(CC[C@]12C)C1(C)CC[C@H](O)C(C)(C)C1CC3 (stereo not given in full)	inactive
C/C1=C/CC(C)(C)/C=C/C/C(C)=C/CC1	inactive
C/C1=C\CC(C)(C)/C=C/CC2(C)OC2CC1 (stereo not given)	inactive
CC(C)CCCC(C)C1CC[C@@]2(C)C3=C(CC[C@]12C)[C@@]1(C)CC[C@H](O)C(C)(C)C1CC3 (stereo not given in full)	inactive

Then this compound:
Request: Write down the call the test reported for this compound. Item: CC(C)=CCCC(C)[C@@H]1CC[C@]2(C)C3=C(CC[C@@]12C)C1(C)CC[C@H](O)C(C)(C)C1CC3 (stereo not given in full)
Response: active
